- measurement context: 373.1 K; Liquid; Ebulliometric method (Recirculating still)
measured attribute: vapor or sublimation pressure (kPa)
Please state the figure in kPa; there is no need to write the unit.

Task item: Recorded vapor or sublimation pressure of CC(C=O)c1ccccc1 (centres undefined) [2-phenylpropanal] , please.
Reply: 3.056

Task item: Query: vapor or sublimation pressure; subject: CCC(=O)O [propanoic acid]
Reply: 23.38

Task item: What does the record list as vapor or sublimation pressure for Oc1ccccc1 [phenol] ?
Reply: 5.529

Task item: Fill in the blank: the reported vapor or sublimation pressure of CCCC(=O)O [butanoic acid] is ____.
Reply: 9.38

The measured values listed here are drawn from the NIST ThermoML archive (doi:10.1021/je050327l).
